The entries below come with measured Cmax values attached.
- experimentNotes: Pharmacokinetics of oral administration of rats
- Assay type: in vivo
- conditions: male, rat, SD rats, p.o. 5.0 mg/kg, plasma
// units = ng/mL; emit number, no label

Observe how each entry below is paired with its result.
>>> quantitativeresult("COc1ccc(-c2c(C#N)cc(C3CCC(N)CC3)nc2-c2ccc(C#N)c(F)c2)cc1F (stereo not shown) [Compound 14]")
130
>>> quantitativeresult("CN1C(=O)Cc2cc(-c3c(C#N)cc(N4CCC(N)CC4)nc3-c3ccc(C#N)c(F)c3)ccc21 [Compound 18]")
77.2
>>> quantitativeresult("CC(C)(O)Cn1ncc2cc(-c3c(C#N)cc(N4CCCNCC4)nc3-c3ccc(C#N)c(F)c3)c(F)cc21 [Compound 21]")
81.4
>>> quantitativeresult("COc1ccc(-c2c(C#N)cc(N3CCC(N)CC3)nc2-c2ccc(C#N)c(F)c2)cc1F [Compound 1]")
93.9
>>> quantitativeresult("COc1ccc(-c2c(C#N)cc(N3CCCNCC3)nc2-c2ccc(C#N)c(F)c2)cc1F [Compound 15]")
125

-- ask Returns the measured Cmax for the input compound. Input: Cn1ncc2cc(-c3c(C#N)cc(N4CCC(N)CC4)nc3-c3ccc(C#N)c(F)c3)ccc21 [Compound 4]
-- reply 55

-- ask Query CC(C)(O)Cn1ncc2cc(-c3c(C#N)cc(N4CCC(N)CC4)nc3-c3ccc(C#N)c(F)c3)c(F)cc21 [Compound 16] next
-- reply 69.9

-- ask How about COc1ccc(-c2c(-c3ccc(C#N)c(F)c3)nc(N3CCC(N)CC3)n(C)c2=O)cc1F [CC-90011, reference compound] ?
-- reply 48.9

-- ask Then what about the compound Cn1ncc2cc(-c3c(C#N)cc(N4CCCNCC4)nc3-c3ccc(C#N)c(F)c3)ccc21 [Compound 20] ?
-- reply 126

-- ask Also check CC(C)(O)Cn1nc(F)c2cc(-c3c(C#N)cc(N4CCC(N)CC4)nc3-c3ccc(C#N)c(F)c3)c(F)cc21 [Compound 36]
-- reply 100

* * *

- testSystem: LSD1 (Homo sapiens, UniProt O60341)
observable: IC50 (nM)
Please respond with the number in nM and leave the unit unwritten.

# count of solved cases: 5
>>> quantitativeresult("Cn1ncc2cc(-c3c(C(N)=O)cc(N4CCC(N)CC4)nc3-c3ccc(C#N)c(F)c3)ccc21")
0.81
>>> quantitativeresult("CC(C)(O)Cn1ncc2cc(-c3c(C#N)cc(N4CCC(N)CC4)nc3-c3ccc(C#N)c(F)c3)c(F)cc21")
0.23
>>> quantitativeresult("Cn1ncc2cc(-c3cc(C(=O)NC4CC4)c(N4CCCNCC4)nc3-c3ccc(C#N)c(F)c3)ccc21")
2.3
>>> quantitativeresult("Cn1ncc2cc(-c3c(C#N)cc(N4CCCNCC4)nc3-c3ccc(C#N)c(F)c3)ccc21")
1.4
>>> quantitativeresult("Cn1ncc2cc(-c3cc(C#N)c(N4CCC(N)CC4)nc3-c3ccc(C#N)c(F)c3)ccc21")
4.4

-- ask GET /values?readout=IC50&item= CC(C)(O)Cn1ncc2cc(-c3c(C(N)=O)cc(N4CCC(N)CC4)nc3-c3ccc(C#N)c(F)c3)c(F)cc21
-- reply 1.2

-- ask Try CC(C)(O)Cn1ncc2cc(-c3c(C#N)cc(N4CCCNCC4)nc3-c3ccc(C#N)c(F)c3)c(F)cc21 next.
-- reply 0.79
